- target: T1, Mouse Id2: Histidine (mouse, UniProt P41136 1-134, limits assumed)
- T1 construct: Fusion protein made in E. coli from vector pGW07; also called m-Id2: His; not shown: His tag
- T1 sequence (looked up): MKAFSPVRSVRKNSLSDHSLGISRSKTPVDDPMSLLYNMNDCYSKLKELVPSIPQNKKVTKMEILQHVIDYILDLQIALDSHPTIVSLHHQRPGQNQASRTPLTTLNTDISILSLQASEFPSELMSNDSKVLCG
- test_name: ELISA, Ab 0.500 µg/ml
quantity_measured: A450 (A450)

>>> measured_number("rabbit monoclonal anti-mouse/human Id3, clone #BCH-4/#6-1 (antibody, V domains shown, Rabbit IgG from a rabbit hybridoma; also called m/h Id3 MoAb 6-1) VH: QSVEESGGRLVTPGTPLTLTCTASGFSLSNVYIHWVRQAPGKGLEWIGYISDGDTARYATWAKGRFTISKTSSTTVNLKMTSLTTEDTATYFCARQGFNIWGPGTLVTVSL VL: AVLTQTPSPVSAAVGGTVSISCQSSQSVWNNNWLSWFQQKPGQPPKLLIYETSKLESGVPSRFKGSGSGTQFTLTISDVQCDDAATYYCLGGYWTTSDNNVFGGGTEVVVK")
0.066
>>> measured_number("rabbit monoclonal anti-human Id3, clone #BCH-4/#3-3 (antibody, V domains shown, Rabbit IgG from a rabbit hybridoma; also called h Id3 MoAb 3-3) VH: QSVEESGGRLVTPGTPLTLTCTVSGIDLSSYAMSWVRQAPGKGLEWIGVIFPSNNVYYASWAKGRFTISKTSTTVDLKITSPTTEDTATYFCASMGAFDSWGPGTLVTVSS VL: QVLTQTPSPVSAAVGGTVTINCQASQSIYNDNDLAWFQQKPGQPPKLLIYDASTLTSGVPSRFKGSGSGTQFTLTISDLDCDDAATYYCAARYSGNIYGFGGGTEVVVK")
0.05
>>> measured_number("rabbit monoclonal anti-mouse/human Id3, clone #BCH-4/#16-1 (antibody, V domains shown, Rabbit IgG from a rabbit hybridoma; also called m/h Id3 MoAb 16-1) VH: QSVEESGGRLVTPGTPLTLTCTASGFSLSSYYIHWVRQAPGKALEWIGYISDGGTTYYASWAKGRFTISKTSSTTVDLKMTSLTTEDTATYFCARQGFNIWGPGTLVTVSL VL: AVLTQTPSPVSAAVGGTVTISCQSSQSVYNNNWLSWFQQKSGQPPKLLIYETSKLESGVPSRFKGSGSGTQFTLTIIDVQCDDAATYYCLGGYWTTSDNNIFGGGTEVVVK")
0.067
>>> measured_number("rabbit monoclonal anti-mouse/human Id3, clone #BCH-4/#17-3 (antibody, V domains shown, Rabbit IgG from a rabbit hybridoma; also called m/h Id3 MoAb 17-3; BCH-3/#17-3) VH: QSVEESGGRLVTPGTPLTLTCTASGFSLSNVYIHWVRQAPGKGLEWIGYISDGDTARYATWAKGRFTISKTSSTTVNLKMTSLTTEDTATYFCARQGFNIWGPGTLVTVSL VL: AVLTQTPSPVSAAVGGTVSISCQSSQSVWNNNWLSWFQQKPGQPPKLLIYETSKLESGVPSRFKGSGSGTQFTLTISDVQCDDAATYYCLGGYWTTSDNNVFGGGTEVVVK")
0.069
